Ref: patent US20180201592A1

System: C. albicans
Test details: Minimum inhibitory concentration, RPMI medium
Assay type: cell-based
Condition details: banded MIC grade
Could you please report measured MIC grade, C. ALBICANS, RPMI media for the items listed next?

Requested field: MIC grade, C. ALBICANS, RPMI media. Item: `CN(CCCCCC1=NN=C(N)SC1)c1ccccc1` 1 (1: ≥20 mg/L)

Requested field: MIC grade, C. ALBICANS, RPMI media. Item: `CCCc1ccc(C2=NN=C(N)SC2)cc1` 1 (1: ≥20 mg/L)

Requested field: MIC grade, C. ALBICANS, RPMI media. Item: `NC1=NN=C(CC(=O)OCc2ccccc2)CS1` 1 (1: ≥20 mg/L)

Requested field: MIC grade, C. ALBICANS, RPMI media. Item: `NC1=NN=C(CCOCc2ccc(-c3ccccc3)cc2)CS1` 1 (1: ≥20 mg/L)

Requested field: MIC grade, C. ALBICANS, RPMI media. Item: `NC1=NN=C(CCCCOCc2ccc(F)cc2F)CS1` 4 (4: <1 mg/L)

Requested field: MIC grade, C. ALBICANS, RPMI media. Item: `NC1=NN=C(CCCOc2ccccc2)CS1` 2 (2: 5-20 mg/L)

Requested field: MIC grade, C. ALBICANS, RPMI media. Item: `COc1cccc(C2=NN=C(N)SC2)c1` 1 (1: ≥20 mg/L)

Requested field: MIC grade, C. ALBICANS, RPMI media. Item: `N#Cc1ccc(COCCC2=NN=C(N)SC2)cc1` 2 (2: 5-20 mg/L)

Requested field: MIC grade, C. ALBICANS, RPMI media. Item: `NC1=NN=C(c2cccc(Cl)c2)CS1` 1 (1: ≥20 mg/L)

Requested field: MIC grade, C. ALBICANS, RPMI media. Item: `NC1=NN=C(CCCCOCc2ccc(Cl)c(F)c2)CS1` 4 (4: <1 mg/L)

Requested field: MIC grade, C. ALBICANS, RPMI media. Item: `CC(C)OCCC1=NN=C(N)SC1` 1 (1: ≥20 mg/L)

Requested field: MIC grade, C. ALBICANS, RPMI media. Item: `COc1ccc(COCCCCC2=NN=C(N)SC2)cc1` 2 (2: 5-20 mg/L)

Requested field: MIC grade, C. ALBICANS, RPMI media. Item: `NC1=NN=C(CCCCOCc2cccc(Br)c2)CS1` 4 (4: <1 mg/L)

Requested field: MIC grade, C. ALBICANS, RPMI media. Item: `COCCCCC1=NN=C(N)SC1` 3 (3: 1-5 mg/L)

Requested field: MIC grade, C. ALBICANS, RPMI media. Item: `COCCOCCC1=NN=C(N)SC1` 2 (2: 5-20 mg/L)

Requested field: MIC grade, C. ALBICANS, RPMI media. Item: CCCCOC1CCC2=NN=C(N)SC2C1 (centres unmarked) 1 (1: ≥20 mg/L)

Requested field: MIC grade, C. ALBICANS, RPMI media. Item: `NC1=NN=C(CCCCCCc2ccccc2)CS1` 2 (2: 5-20 mg/L)

Requested field: MIC grade, C. ALBICANS, RPMI media. Item: `NC1=NN=C(CCOc2ccc(-c3ccccc3)cc2)CS1` 1 (1: ≥20 mg/L)

Requested field: MIC grade, C. ALBICANS, RPMI media. Item: `NC1=NN=C(CCCCc2cc3ccccc3o2)CS1` 3 (3: 1-5 mg/L)

Requested field: MIC grade, C. ALBICANS, RPMI media. Item: `NC1=NN=C(CCOC2CCCCC2)CS1` 1 (1: ≥20 mg/L)

Requested field: MIC grade, C. ALBICANS, RPMI media. Item: `Cc1cccc(C2=NN=C(N)SC2)c1` 1 (1: ≥20 mg/L)

Requested field: MIC grade, C. ALBICANS, RPMI media. Item: `COc1ccc(CCCOCCC2=NN=C(N)SC2)cc1` 2 (2: 5-20 mg/L)

Requested field: MIC grade, C. ALBICANS, RPMI media. Item: `COCCCCOCCC1=NN=C(N)SC1` 3 (3: 1-5 mg/L)

Requested field: MIC grade, C. ALBICANS, RPMI media. Item: `NC1=NN=C(CCCCCC(=O)O)CS1` 1 (1: ≥20 mg/L)

Requested field: MIC grade, C. ALBICANS, RPMI media. Item: `COCCC1=NN=C(N)SC1` 1 (1: ≥20 mg/L)

Requested field: MIC grade, C. ALBICANS, RPMI media. Item: `NC1=NN=C(CCCCOCc2cccc(C3CC3)c2)CS1` 4 (4: <1 mg/L)

Requested field: MIC grade, C. ALBICANS, RPMI media. Item: `CCCCc1ccc(OCCCCCC2=NN=C(N)SC2)cc1` 2 (2: 5-20 mg/L)

Requested field: MIC grade, C. ALBICANS, RPMI media. Item: `NC1=NN=C(CCCCCOc2ccccn2)CS1` 4 (4: <1 mg/L)

Requested field: MIC grade, C. ALBICANS, RPMI media. Item: `NC1=NN=C(CCCCOCc2ccc(C(F)(F)F)cc2)CS1` 4 (4: <1 mg/L)
